Entries and their % Activation
SYSTEM UNDER TEST: ΔF508-CFTR (Homo sapiens, UniProt P13569, DEL508-508)
Construct: host or cells: CFBE41o-, doxycycline-inducible
Sequence (P13569 with tags, fused parts or gaps DEL508-508): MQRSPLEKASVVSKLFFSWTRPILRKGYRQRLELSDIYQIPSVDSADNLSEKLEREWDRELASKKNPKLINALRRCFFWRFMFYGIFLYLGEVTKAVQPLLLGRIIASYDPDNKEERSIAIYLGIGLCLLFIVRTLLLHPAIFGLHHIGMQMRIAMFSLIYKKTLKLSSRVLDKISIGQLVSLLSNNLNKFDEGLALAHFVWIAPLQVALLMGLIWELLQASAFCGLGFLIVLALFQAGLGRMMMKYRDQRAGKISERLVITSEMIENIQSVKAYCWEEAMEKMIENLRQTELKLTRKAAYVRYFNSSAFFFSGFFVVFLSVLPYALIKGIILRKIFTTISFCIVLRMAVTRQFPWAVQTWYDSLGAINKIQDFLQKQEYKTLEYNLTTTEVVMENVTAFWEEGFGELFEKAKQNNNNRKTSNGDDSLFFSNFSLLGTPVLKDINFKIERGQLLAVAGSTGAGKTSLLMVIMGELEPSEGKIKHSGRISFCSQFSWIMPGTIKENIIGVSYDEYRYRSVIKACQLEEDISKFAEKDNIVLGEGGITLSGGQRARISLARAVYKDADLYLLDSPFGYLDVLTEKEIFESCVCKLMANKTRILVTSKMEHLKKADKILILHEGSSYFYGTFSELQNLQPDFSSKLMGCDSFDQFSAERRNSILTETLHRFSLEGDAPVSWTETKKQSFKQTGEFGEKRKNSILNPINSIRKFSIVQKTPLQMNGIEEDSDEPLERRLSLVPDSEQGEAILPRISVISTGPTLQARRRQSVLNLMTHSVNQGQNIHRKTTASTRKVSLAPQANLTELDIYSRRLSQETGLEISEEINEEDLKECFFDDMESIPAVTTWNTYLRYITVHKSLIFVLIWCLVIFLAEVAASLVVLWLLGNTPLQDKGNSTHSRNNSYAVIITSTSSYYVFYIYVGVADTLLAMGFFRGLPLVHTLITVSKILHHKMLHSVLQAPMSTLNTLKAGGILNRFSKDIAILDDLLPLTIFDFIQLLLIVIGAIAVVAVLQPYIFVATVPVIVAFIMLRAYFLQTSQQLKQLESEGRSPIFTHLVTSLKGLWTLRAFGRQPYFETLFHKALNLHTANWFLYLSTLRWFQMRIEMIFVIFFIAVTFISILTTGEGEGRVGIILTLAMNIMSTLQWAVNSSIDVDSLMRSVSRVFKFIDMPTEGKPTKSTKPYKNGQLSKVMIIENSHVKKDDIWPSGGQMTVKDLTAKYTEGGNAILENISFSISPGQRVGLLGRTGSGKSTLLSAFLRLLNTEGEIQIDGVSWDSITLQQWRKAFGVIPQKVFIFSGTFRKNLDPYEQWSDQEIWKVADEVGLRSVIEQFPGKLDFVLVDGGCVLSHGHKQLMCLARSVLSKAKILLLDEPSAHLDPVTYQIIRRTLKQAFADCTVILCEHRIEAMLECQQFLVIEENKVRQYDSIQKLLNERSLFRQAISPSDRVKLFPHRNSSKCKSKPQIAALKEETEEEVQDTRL
TEST DESCRIPTION: CFTR cell surface levels using HRP-tagged ΔF508-CFTR expressing CFBE cells, intrinsic corrector capacity
Type: cell-based
COND: HRP-tagged ΔF508-CFTR expressing CFBE cells; intrinsic corrector capacity (no co-corrector); 33° C., 20 hours
Source text: Measuring CFTR Cell Surface Levels Using HRP-Tagged AF508-CFTR Expressing CFBE Cells The HRP-tagged AF508-CFTR cell assay measures the expression of CFTR-ΔF508 at the plasma membrane. […] When HRP-tagged AF508-CFTR is present at the plasma membrane, the HRP enzyme activity can be measured. The amount of CFTR-ΔF508 that can be rescued to the plasma membrane is correlated with the amount of functional enzyme that can be measured. […]
Report the value in % with no unit label.

CC1CN(c2cc(C(=O)O)nc3c2c(C2CCC2)nn3-c2ccccc2)C1 | 104.7
O=C(O)c1cc(N2CCC(CN3CCCCC3)CC2)c2c(C3CCC3)nn(-c3ccccc3)c2n1 | 240.4
O=C(O)c1cc(OC[C@H](F)C2CCOCC2)c2c(C3CCC3)nn(-c3ccccc3)c2n1 | 154.17
COCCC1(CCOc2cc(C(=O)O)nc3c2c(C2CCC2)nn3-c2ccccc2)CC1 | 113.5
CCCN1CCCN(c2cc(C(=O)O)nc3c2c(C(C)C)nn3-c2ccc(F)cc2)CC1 | 54.3

Fill in: % Activation of COCCN1CCN(c2ccc(-c3cc(C(=O)O)nc4c3c(C3CCC3)nn4C3CCCCC3)cn2)CC1 is ___
181.05

Then CN1CCC[C@H](Oc2cc(C(=O)O)nc3c2c(C2CCC2)nn3-c2ccccc2)C1 ?
65.56

Then O=C(O)c1cc(N2CCC3(CCCO3)C2)c2c(C3CCC3)nn(-c3ccccc3)c2n1 (centres unmarked) ?
62.95

====

SYSTEM UNDER TEST: ΔF508-CFTR (Homo sapiens, UniProt P13569, DEL508-508)
Construct: host or cells: CFBE41o-, doxycycline-inducible
TEST DESCRIPTION: CFTR cell surface levels using HRP-tagged ΔF508-CFTR expressing CFBE cells, intrinsic corrector capacity
Type: cell-based
COND: HRP-tagged ΔF508-CFTR CFBE41o- cells, compounds alone (intrinsic corrector capacity), 20 hours at 33° C.; positive control 3 μM corrector
Entries and their % Activation
Report the value in % with no unit label.

Below, each entry is followed by its recorded % Activation result.
Cc1nn(-c2ccccc2)c2nc(C(=O)O)cc(-c3ccc(N4CCC(F)(F)C4)cc3)c12 | 110.34
Cc1nn(-c2ccccc2)c2nc(C(=O)O)cc(OCC3(F)CCN(C)C3)c12 (stereo not shown) | 14.56

What reported % Activation corresponds to CC(C)c1nn(-c2cccc(N3CC(C)(C)C3)c2)c2nc(C(=O)O)cc(-c3ccc(N4CCOCC4)cc3)c12 on ΔF508-CFTR (Homo sapiens, UniProt P13569, DEL508-508)?
318.83

====

SYSTEM UNDER TEST: ΔF508-CFTR (Homo sapiens, UniProt P13569, DEL508-508)
Construct: host or cells: CFBE41o-, doxycycline-inducible
TEST DESCRIPTION: CFTR cell surface levels using HRP-tagged ΔF508-CFTR expressing CFBE cells, in the presence of a co-corrector
Format: cell-based
COND: HRP-tagged ΔF508-CFTR expressing CFBE cells, in the presence of 3 μM co-corrector; read-out: EC50
Entries and their EC50
Report the value in µM with no unit label.

O=C(O)c1cc(N2CCN(CCCN3CCOCC3)CC2)c2c(C3CCC3)nn(-c3ccccc3)c2n1 | 0.778

Fill in: EC50 of O=C(O)c1cc(-c2ccc(N3CCOCC3)cc2)c2c(C3CCC3)nn(-c3ccc(F)c(F)c3)c2n1 is ___
0.316

Then O=C(O)c1cc(OCC2CCOCC2)c2c(C3CCC3)nn(-c3ccccc3)c2n1 ?
0.318

Then CCOC(=O)N1CCN(C2CCN(c3cc(C(=O)O)nc4c3c(C3CCC3)nn4-c3ccc(F)cc3)CC2)CC1 ?
0.051

====

SYSTEM UNDER TEST: ΔF508-CFTR (Homo sapiens, UniProt P13569, DEL508-508)
Construct: host or cells: CFBE41o-, doxycycline-inducible
TEST DESCRIPTION: CFTR cell surface levels using HRP-tagged ΔF508-CFTR expressing CFBE cells, in the presence of a co-corrector
Type: cell-based
COND: HRP-tagged ΔF508-CFTR expressing CFBE cells, in the presence of 3 μM co-corrector; read-out: EC50
Entries and their pEC50
By convention, pEC50 is the negative base-10 log of a molar concentration.

O=C(O)c1cc(OCC2CC(F)(F)C2)c2c(C3CCC3)nn(-c3ccccc3)c2n1 | 6.42
Cc1nn(C2CCCCC2)c2nc(C(=O)O)cc(-c3ccc(N4CCOCC4)nc3)c12 | 5.83
CC(C)c1nn(-c2ccc(F)cc2)c2nc(C(=O)O)cc(N3CCC(CN4CCCCC4)CC3)c12 | 6.74

Fill in: pEC50 of COC1CCN(c2cc(C(=O)O)nc3c2c(C(C)C)nn3C2CCCCC2)CC1 is ___
6.33

====

SYSTEM UNDER TEST: ΔF508-CFTR (Homo sapiens, UniProt P13569, DEL508-508)
Construct: host or cells: CFBE41o-, doxycycline-inducible
TEST DESCRIPTION: CFTR cell surface levels using HRP-tagged ΔF508-CFTR expressing CFBE cells, intrinsic corrector capacity
Type: cell-based
COND: HRP-tagged ΔF508-CFTR CFBE41o- cells, compounds alone (intrinsic corrector capacity), 20 hours at 33° C.; positive control 3 μM corrector
Rule: % Activation below 200% gives Satisfied. Equal to or above 200% gives Not satisfied.

For orientation, consider the following solved cases.
CC(C)(O)c1nn(-c2ccccc2)c2nc(C(=O)O)cc(-c3ccc(N4CCOCC4)cc3)c12 [compound 63] | Satisfied
CC(C)c1nn([C@@H]2CCC[C@@H](OCc3ccccc3)C2)c2nc(C(=O)O)cc(-c3ccc(N4CCOCC4)cc3)c12 [compound 163] | Not satisfied
CC(C)c1nn(-c2cc(F)cc(F)c2)c2nc(C(=O)O)cc(-c3ccc(N(C)C4CCOCC4)nc3)c12 [compound 246] | Not satisfied
Cc1nn(-c2ccccc2)c2nc(C(=O)O)cc(N3CC[C@@H](F)C3)c12 [compound 298] | Satisfied
Cc1cccc(-n2nc(C)c3c(-c4ccc(N5CCOCC5)cc4)cc(C(=O)O)nc32)c1 [compound 13] | Satisfied
CC(C)c1nn(-c2cccc(C(F)(F)F)c2)c2nc(C(=O)O)cc(-c3ccc(N4CCC(C#N)CC4)cc3)c12 [compound 261] | Not satisfied

Turning now to a further record.
# check: % Activation < 200% for CC(C)c1nn(-c2ccc(F)cc2F)c2nc(C(=O)O)cc(-c3ccc(N4CCC(C#N)CC4)cc3)c12 [compound 327]
Satisfied

====

SYSTEM UNDER TEST: ΔF508-CFTR (Homo sapiens, UniProt P13569, DEL508-508)
Construct: host or cells: CFBE41o-, doxycycline-inducible
TEST DESCRIPTION: CFTR cell surface levels using HRP-tagged ΔF508-CFTR expressing CFBE cells, in the presence of a co-corrector
Assay type: cell-based
COND: HRP-tagged ΔF508-CFTR expressing CFBE cells, in the presence of 3 μM co-corrector; read-out: EC50
Entries and their log10 EC50
The common logarithm of EC50 in nM is what is listed.

Below, each entry is followed by its recorded log10 EC50 result.
CN(C)CCCN1CCN(c2cc(C(=O)O)nc3c2c(C2CCC2)nn3-c2ccccc2)CC1 | 3.22
O=C(O)c1cc(OCCCN2CCOCC2)c2c(C3CCC3)nn(-c3ccccc3)c2n1 | 2.69
CC(=O)N1CCC(Oc2cc(C(=O)O)nc3c2c(C2CCC2)nn3-c2ccccc2)CC1 | 3.07
Cc1nn(-c2ccccc2)c2nc(C(=O)O)cc(-c3ccc(N(C)C4CCOCC4)cc3)c12 | 2.73
Cc1cccc(-n2nc(C(C)C)c3c(N4CCC(S(C)(=O)=O)CC4)cc(C(=O)O)nc32)c1 | 2.90
O=C(O)c1cc(OCC2CCCC2(F)F)c2c(C3CCC3)nn(-c3ccccc3)c2n1 (stereo not shown) | 2.53
COCCN(C)c1ccc(-c2cc(C(=O)O)nc3c2c(C(C)C)nn3C2CCCCC2)cc1 | 2.83
CC(C)N1CCN(C2CCN(c3cc(C(=O)O)nc4c3c(C3CCC3)nn4C3CCCCC3)CC2)CC1 | 2.84
CN(C)c1ccc(-c2cc(C(=O)O)nc3c2c(C(C)(C)C)nn3C2CCCCC2)cc1 | 2.79
Cc1nn(C2CCCCC2)c2nc(C(=O)O)cc(-c3cnc(N(C)C)nc3)c12 | 3.06

Fill in: log10 EC50 of O=C(O)c1cc(OC2CCOCC2)c2c(C3CCC3)nn(-c3ccccc3)c2n1 is ___
2.43

Then COCC1CCN(c2cc(C(=O)O)nc3c2c(C2CCC2)nn3-c2ccccc2)CC1 ?
2.35

Then CC(C)c1nn(C2CCCCC2)c2nc(C(=O)O)cc(-c3ccc(N4CCC(C)(C#N)CC4)nc3)c12 ?
2.88

Then CC(C)c1nn(-c2cccc(N(C)C)c2)c2nc(C(=O)O)cc(-c3cnc(N4CCOCC4)nc3)c12 ?
2.87

Then COCC1CCN(c2cc(C(=O)O)nc3c2c(C(C)C)nn3-c2cccc(C)c2)CC1 ?
2.53
